Provenance of the data: paper PMC4336329

biological target: human ether-à-go-go-related gene (hERG) potassium channel (human); assay: primary screen, population patch clamp on CHO cells stably expressing hERG; higher = less effect of the substance
Screen size: about 310,000 compounds; about 14,000 (4.5%) showed an effect of 50% or more. Effects have a minus sign here. The sample as a whole holds a higher share of strong results than the screen did.
property: hERG current change (%, negative = inhibition) at 10uM

Recorded results for 5 compounds are shown here.
# compound, value.measured
measured = [
    ("O=C(N/N=C/c1cc([N+](=O)[O-])ccc1O)c1cc(-c2ccccc2)nc2ccccc12", "12.3%"),
    ("COc1cccc(N=Nc2c(N)[nH]n3c(=O)c4c(nc23)CCCC4)c1", "12.2%"),
    ("NC(=O)c1nsc(C(=O)N(Cc2ccco2)C(C(=O)NCc2ccc(F)cc2)c2ccc(O)cc2)c1N (stereo not drawn)", "-43.8%"),
    ("CN(C(=O)c1cccnc1)c1nnc(-c2cccnc2)s1", "14.4%"),
    ("COc1ccc(C(=O)NC2CCCCC2)cc1S(=O)(=O)N1CCOCC1", "-14.8%"),
]

Please tell me the measured hERG current change (%, negative = inhibition) at 10uM for `Nc1[nH]n2c(=O)c3c(nc2c1N=Nc1ccccc1)CCCC3` ; system: human ether-à-go-go-related gene (hERG) potassium channel (human).
-54.3%

Please tell me the measured hERG current change (%, negative = inhibition) at 10uM for C/C(=N\NC(=O)C1CCCN(S(=O)(=O)c2ccccc2)C1)c1ccccn1 (stereo not drawn) ; system: human ether-à-go-go-related gene (hERG) potassium channel (human).
-20.8%

Please tell me the measured hERG current change (%, negative = inhibition) at 10uM for `CCOC(=O)Cc1nnc(NC(=O)CSc2ncc(-c3ccccc3)nn2)s1` ; system: human ether-à-go-go-related gene (hERG) potassium channel (human).
-58.7%

---

target: human ether-à-go-go-related gene (hERG) potassium channel (human, UniProt Q12809); test: primary screen, population patch clamp on CHO cells stably expressing hERG; higher = less effect of the substance;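 also: peak tail current of the secondary pulse compared with the same well before compound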
Sequence (Q12809 whole entry, looked up): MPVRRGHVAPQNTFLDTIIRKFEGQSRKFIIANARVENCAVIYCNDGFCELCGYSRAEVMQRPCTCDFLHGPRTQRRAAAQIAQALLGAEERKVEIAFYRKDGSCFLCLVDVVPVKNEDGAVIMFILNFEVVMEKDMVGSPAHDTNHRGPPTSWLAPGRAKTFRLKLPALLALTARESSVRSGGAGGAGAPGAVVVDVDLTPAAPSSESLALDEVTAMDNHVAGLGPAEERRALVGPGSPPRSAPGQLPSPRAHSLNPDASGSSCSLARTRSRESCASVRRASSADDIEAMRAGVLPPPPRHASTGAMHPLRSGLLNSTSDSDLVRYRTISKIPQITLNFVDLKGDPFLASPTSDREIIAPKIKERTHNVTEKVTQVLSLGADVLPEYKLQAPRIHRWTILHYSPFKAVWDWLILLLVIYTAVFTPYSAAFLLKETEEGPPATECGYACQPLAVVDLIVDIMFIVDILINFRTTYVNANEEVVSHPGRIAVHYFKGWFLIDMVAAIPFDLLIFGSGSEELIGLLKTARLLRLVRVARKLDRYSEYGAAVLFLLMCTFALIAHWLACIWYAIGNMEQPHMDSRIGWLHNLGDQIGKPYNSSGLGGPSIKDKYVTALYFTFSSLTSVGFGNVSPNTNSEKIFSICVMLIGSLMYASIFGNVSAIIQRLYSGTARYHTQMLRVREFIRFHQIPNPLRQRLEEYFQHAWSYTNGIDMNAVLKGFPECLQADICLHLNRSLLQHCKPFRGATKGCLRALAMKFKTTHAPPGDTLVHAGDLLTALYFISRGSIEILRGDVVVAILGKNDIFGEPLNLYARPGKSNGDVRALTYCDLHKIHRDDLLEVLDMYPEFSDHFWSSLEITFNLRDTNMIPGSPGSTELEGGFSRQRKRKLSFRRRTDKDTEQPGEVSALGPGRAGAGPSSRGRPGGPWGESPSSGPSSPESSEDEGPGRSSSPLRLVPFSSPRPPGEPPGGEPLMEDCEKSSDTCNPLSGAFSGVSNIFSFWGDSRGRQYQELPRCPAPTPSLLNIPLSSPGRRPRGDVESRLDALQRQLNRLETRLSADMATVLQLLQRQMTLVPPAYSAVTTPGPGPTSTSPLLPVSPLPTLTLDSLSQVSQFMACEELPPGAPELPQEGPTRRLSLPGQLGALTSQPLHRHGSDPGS
About 14,000 (4.5%) of roughly 310,000 compounds showed an effect of 50% or more. The effect is printed as a negative number. This excerpt belongs to a sample that is enriched for strong results.
property: hERG current change (%, negative = inhibition) at 10uM (%)
Write down the numeric answer in % and omit the unit.

Recorded results for 2 compounds are shown here.
# smiles.string, value.measured
data = [
    ("CNC(=S)Nc1cccc(S(=O)(=O)NC2=NCCC2)c1", -7.6),
    ("CCOc1ccc(C(=O)NCC(=O)OCc2c(C)noc2C)cc1OCC", 23.2),
]

Please tell me the measured hERG current change (%, negative = inhibition) at 10uM for `Cc1cccc2c(=O)c(C(=O)NCCc3ccccc3)c[nH]c12` ; system: human ether-à-go-go-related gene (hERG) potassium channel (human, UniProt Q12809).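 Also: peak tail current of the secondary pulse compared with the same well before compound.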
21.9

Please tell me the measured hERG current change (%, negative = inhibition) at 10uM for `Cc1nc(C)c(N)c(=O)[nH]1.Cl` ; system: human ether-à-go-go-related gene (hERG) potassium channel (human, UniProt Q12809).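 Also: peak tail current of the secondary pulse compared with the same well before compound.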
16.3

Please tell me the measured hERG current change (%, negative = inhibition) at 10uM for `CC(C)(C)NC(=O)CN1CCCN(C(=O)c2cccc(S(=O)(=O)N3CCc4ccccc43)c2)CC1` ; system: human ether-à-go-go-related gene (hERG) potassium channel (human, UniProt Q12809).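 Also: peak tail current of the secondary pulse compared with the same well before compound.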
-7.51
